// provenance: PubChem BioAssay (NCATS)

Tested on: CP238
Test: qHTS profiling for inhibitors of Plasmodium falciparum proliferation (AID 504749); note: nearly all actives have a fitted effect of over 60% in size
Settings: P. falciparum in erythrocytes, SYBR Green DNA, 72 h; series mostly up to 28.7 µM
Records with an inconclusive call do not appear. Activity calls are given as the source filed them. Calls come from the whole dose curve; as a rule, active = well fitted inhibition curve with a large enough effect; inconclusive = small, poorly fitted or top-dose-only effect; inactive = flat fitted curve, though single readings scatter.
// allowed return values: t for active, f for inactive

Known results for compounds:
CC(=O)Oc1ccc(C)cc1 ... f
COc1ccc(C(Cl)=C(c2ccc(OC)cc2)c2ccc(OC)cc2)cc1 ... t
CC(=O)NC(=O)c1ccccc1O ... f
NC(=O)c1ccccc1O ... f
CCCCCCCCCCCCSCCOCCO ... f
Oc1c(Cl)cc(Cl)c(Cl)c1Cc1c(O)c(Cl)cc(Cl)c1Cl ... t
Cc1cc(CC(=O)O)c(C)n1-c1ccc(Cl)cc1 ... f
Nc1nc(-c2ccccc2)c(Br)c(=O)[nH]1 ... f

[Q] Dear colleague, could you share the recorded outcome for COc1ccc(C(=O)c2ccccc2O)c(O)c1 when you have a moment?
[A] f

[Q] Dear colleague, could you share the recorded outcome for Cc1c(-c2ccccc2)oc2c(C(=O)OCCN3CCCCC3)cccc2c1=O when you have a moment?
[A] f

[Q] Dear colleague, could you share the recorded outcome for CCCCc1cc2ccccc2c(OCCN(C)C)n1 when you have a moment?
[A] f

[Q] Dear colleague, could you share the recorded outcome for O=C(Oc1cccc2cccnc12)c1ccccc1 when you have a moment?
[A] f

[Q] Dear colleague, could you share the recorded outcome for NS(=O)(=O)c1ccc(Cl)c(S(N)(=O)=O)c1 when you have a moment?
[A] f

[Q] Dear colleague, could you share the recorded outcome for CCOc1ccccc1C(N)=O when you have a moment?
[A] f

[Q] Dear colleague, could you share the recorded outcome for Cn1c(=O)c2[nH]c(Br)nc2n(C)c1=O when you have a moment?
[A] f

[Q] Dear colleague, could you share the recorded outcome for CCN(CC)CCNC(=O)COc1ccc(OC)cc1 when you have a moment?
[A] f

[Q] Dear colleague, could you share the recorded outcome for CC1(COc2ccc(CC3SC(=O)NC3=O)cc2)CCCCC1 (stereo not given) when you have a moment?
[A] f
